The reported measurements were obtained from ChEMBL document CHEMBL2021851.

System: Aurora kinase B (Homo sapiens, UniProt Q96GD4) | Read-out: IC50
Sequence (Q96GD4 whole entry): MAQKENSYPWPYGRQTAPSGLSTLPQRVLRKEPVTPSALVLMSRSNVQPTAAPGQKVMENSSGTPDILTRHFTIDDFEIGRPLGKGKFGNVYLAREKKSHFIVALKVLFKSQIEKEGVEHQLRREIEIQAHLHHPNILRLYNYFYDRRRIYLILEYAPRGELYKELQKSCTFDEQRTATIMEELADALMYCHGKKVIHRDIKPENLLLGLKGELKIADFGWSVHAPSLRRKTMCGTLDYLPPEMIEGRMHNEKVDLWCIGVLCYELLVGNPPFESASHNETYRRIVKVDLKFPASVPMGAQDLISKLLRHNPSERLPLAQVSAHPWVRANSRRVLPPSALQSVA
QUANTITY MEASURED: IC50 (nM)

P = Cc1cn2c(-c3cnn(CC(=O)Nc4ccccn4)c3)cnc2c(Nc2cc(CN3CCCC(C)C3)ns2)n1 (stereo not drawn)
Q = Cc1cn2c(-c3cnn(CC(=O)NCc4ccncc4)c3)cnc2c(Nc2cc(CN3CCCC(C)C3)ns2)n1 (stereo not drawn)
Between P and Q , whose measured IC50 reads higher? Select an item and report its label. Q
(Q: 1110 nM, P: 32 nM)

a = Cc1cn2c(-c3cnn(CC(N)=O)c3)cnc2c(Nc2cc(CN3CCCCC3)ns2)n1
b = Cc1cn2c(-c3cnn(CC(=O)Nc4cccnn4)c3)cnc2c(Nc2cc(CN3CCCC(C)C3)ns2)n1 (stereo not drawn)
// compare measured IC50 between a and b ; output the lower one Select an item and report its label. a
(a: 28 nM, b: 45 nM)

I = Cc1cn2c(-c3cnn(CC(=O)N(C)Cc4ccccc4)c3)cnc2c(Nc2cc(CN3CCCC(C)C3)ns2)n1 (stereo not drawn)
II = COc1ccc(CNC(=O)Cn2cc(-c3cnc4c(Nc5cc(CN6CCCC(C)C6)ns5)nc(C)cn34)cn2)cc1 (stereo not drawn)
Between I and II , whose measured IC50 reads higher? Select an item and report its label. I
(I: 261 nM, II: 161 nM)

A = Cc1cn2c(-c3cnn(CC(=O)NCc4cccc(N(C)C)c4)c3)cnc2c(Nc2cc(CN3CCCC(C)C3)ns2)n1 (stereo not drawn)
B = Cc1cn2c(-c3cnn(CC(=O)NCCC(C)C)c3)cnc2c(Nc2cc(CN3CCCCC3)ns2)n1
// compare measured IC50 between A and B ; output the lower one Select an item and report its label. B

====

System: Tyrosine-protein kinase Lck (Homo sapiens, UniProt P06239) | Read-out: IC50
Sequence (P06239 whole entry): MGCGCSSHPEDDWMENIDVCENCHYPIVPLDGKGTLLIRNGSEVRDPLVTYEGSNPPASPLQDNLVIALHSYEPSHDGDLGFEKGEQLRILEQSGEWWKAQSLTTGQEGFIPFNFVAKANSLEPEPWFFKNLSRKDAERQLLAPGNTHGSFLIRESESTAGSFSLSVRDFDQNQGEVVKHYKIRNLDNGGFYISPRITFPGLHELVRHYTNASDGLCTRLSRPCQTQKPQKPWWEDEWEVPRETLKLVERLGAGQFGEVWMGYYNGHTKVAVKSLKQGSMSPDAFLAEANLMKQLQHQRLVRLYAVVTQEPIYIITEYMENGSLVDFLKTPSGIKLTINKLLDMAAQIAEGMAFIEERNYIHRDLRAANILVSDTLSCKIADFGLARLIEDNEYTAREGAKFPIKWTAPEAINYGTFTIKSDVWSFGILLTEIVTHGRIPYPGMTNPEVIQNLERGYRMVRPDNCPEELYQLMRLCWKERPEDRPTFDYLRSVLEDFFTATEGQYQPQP
QUANTITY MEASURED: IC50 (nM)

1 = Cc1cn2c(-c3cn[nH]c3)cnc2c(Nc2cc(CN3CCCCC3)ns2)n1
2 = Cc1cn2c(-c3cnn(CC(=O)Nc4ccncc4F)c3)cnc2c(Nc2cc(CN3CCCC(C)C3)ns2)n1 (stereo not drawn)
Between 1 and 2 , whose measured IC50 reads higher? Select an item and report its label. 2

====

TARGET ENTITY: Aurora kinase B (Homo sapiens, UniProt Q96GD4)
TEST: Inhibition of aurora B kinase in human HCT116 cells assessed as inhibition of histone H3 phosphorylation incubated for 1 hr by Hoechst 33342 staining based microscopic analysis
pEC50: −log10 of the molar value.
QUANTITY MEASURED: pEC50

INSERT INTO assay_data (compound, quantity_measured, measured_result) VALUES
  ('Cc1cn2c(-c3cnn(CC(=O)NCc4cc(F)cc(F)c4)c3)cnc2c(Nc2cc(CN3CCCCC3)ns2)n1', 'pEC50', 6.41);

A = Cc1cn2c(-c3cn[nH]c3)cnc2c(Nc2cc(CN3CCCCC3)ns2)n1
B = Cc1cn2c(-c3cnn(CC(=O)NCc4cccc(F)c4)c3)cnc2c(Nc2cc(CN3CCCCC3)ns2)n1
// compare measured pEC50 between A and B ; output the lower one Select an item and report its label. B
(B: 6.63, A: 7.30)

====

System: Vascular endothelial growth factor receptor 2 (Homo sapiens) | Read-out: IC50
Sequence (P35968 whole entry): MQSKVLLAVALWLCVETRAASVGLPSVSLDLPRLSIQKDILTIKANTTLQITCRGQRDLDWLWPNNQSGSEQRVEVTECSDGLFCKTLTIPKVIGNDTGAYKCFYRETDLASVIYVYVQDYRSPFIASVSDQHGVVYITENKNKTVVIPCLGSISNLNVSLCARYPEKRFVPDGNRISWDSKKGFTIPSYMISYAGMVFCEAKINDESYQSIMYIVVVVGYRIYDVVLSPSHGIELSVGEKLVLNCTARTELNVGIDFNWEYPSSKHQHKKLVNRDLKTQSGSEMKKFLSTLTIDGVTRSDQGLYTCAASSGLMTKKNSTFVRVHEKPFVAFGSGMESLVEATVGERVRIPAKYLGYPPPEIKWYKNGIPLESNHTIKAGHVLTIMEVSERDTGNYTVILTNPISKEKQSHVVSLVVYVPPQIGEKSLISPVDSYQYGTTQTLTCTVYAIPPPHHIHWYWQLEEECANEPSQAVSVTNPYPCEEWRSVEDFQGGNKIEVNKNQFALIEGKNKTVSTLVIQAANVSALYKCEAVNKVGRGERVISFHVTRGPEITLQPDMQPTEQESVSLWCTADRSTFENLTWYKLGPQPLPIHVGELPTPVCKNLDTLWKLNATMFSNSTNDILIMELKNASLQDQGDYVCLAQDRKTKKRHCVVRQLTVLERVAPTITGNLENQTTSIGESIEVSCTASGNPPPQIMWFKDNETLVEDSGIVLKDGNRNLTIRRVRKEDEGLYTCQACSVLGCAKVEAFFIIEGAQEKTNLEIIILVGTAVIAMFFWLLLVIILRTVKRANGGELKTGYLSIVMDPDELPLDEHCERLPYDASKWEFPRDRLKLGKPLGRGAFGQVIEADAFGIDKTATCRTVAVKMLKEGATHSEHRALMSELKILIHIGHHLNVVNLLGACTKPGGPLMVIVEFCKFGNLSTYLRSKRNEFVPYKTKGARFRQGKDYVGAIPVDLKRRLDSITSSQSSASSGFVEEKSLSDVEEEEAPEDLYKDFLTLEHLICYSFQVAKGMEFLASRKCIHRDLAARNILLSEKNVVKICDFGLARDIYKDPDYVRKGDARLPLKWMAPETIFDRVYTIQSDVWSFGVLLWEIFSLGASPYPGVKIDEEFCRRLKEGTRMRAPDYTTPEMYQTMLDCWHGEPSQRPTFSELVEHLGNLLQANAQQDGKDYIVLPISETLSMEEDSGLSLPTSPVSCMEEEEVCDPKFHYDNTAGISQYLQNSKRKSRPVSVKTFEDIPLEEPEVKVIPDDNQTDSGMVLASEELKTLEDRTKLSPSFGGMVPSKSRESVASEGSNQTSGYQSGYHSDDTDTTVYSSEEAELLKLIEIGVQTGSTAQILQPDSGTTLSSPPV
QUANTITY MEASURED: IC50 (nM)

I = Cc1cn2c(-c3cnn(CC(=O)Nc4cccc(F)c4F)c3)cnc2c(Nc2cc(CN3CCCCC3)ns2)n1
II = Cc1cn2c(-c3cn[nH]c3)cnc2c(Nc2cc(CN3CCCCC3)ns2)n1
III = Cc1cn2c(-c3cnn(CC(=O)Nc4ccncc4)c3)cnc2c(Nc2cc(CN3CCCC(C)C3)ns2)n1 (stereo not drawn)
# rank above entries by IC50 (max first, min last) Reply with the labels, ordered as the question asks. I, III, II
